organism: Rattus norvegicus; experiment: Effect on electron transport protein complex 1 in Wistar-Han rat liver mitochondria using glutamate/malate as substrate assessed as ADP-induced depolarization at 6 ug/mg relative to control
// assign T if Activity falls strictly below 20%, else F (ties count as F)

[[record]]
smiles_str = "C=C(C)[C@@H]1CC[C@]2(COC(=O)C[n+]3ccc(N(C)C)cc3)CC[C@]3(C)[C@H](CC[C@@H]4[C@@]5(C)CC[C@H](O)C(C)(C)[C@@H]5CC[C@]43C)[C@@H]12"
class_name = "F"

[[record]]
smiles_str = "C=C(C)[C@@H]1CC[C@]2(CO)CC[C@]3(C)[C@H](CC[C@@H]4[C@@]5(C)CC[C@H](OC(=O)C[n+]6ccc(N(C)C)cc6)C(C)(C)[C@@H]5CC[C@]43C)[C@@H]12.[Cl-]"
class_name = "F"


is_below(Activity, 20%) for C=C(C[n+]1ccc(N(C)C)cc1)[C@@H]1CC[C@]2(COC(=O)C[n+]3ccc(N(C)C)cc3)CC[C@]3(C)[C@H](CC[C@@H]4[C@@]5(C)CC[C@H](OC(=O)C[n+]6ccc(N(C)C)cc6)C(C)(C)[C@@H]5CC[C@]43C)[C@@H]12.[Br-].[Br-].[Br-] ? T

is_below(Activity, 20%) for C=C(C[n+]1ccc(N(C)C)cc1)[C@@H]1CC[C@]2(C(=O)O)CC[C@]3(C)[C@H](CC[C@@H]4[C@@]5(C)CC[C@H](O)C(C)(C)[C@@H]5CC[C@]43C)[C@@H]12.[Br-] ? T

---

system: MCF7; experiment: Induction of mitochondrial depolarization in human estrogen-sensitive MCF7 cells at 1 ug/ml after 48 hrs by MitoTracker Red staining; assay type: functional, cell-based
Active and inactive are the calls of the source. The calls are words filed in the database; no cut-off is given here.
The reply should name one outcome from active, inactive

Recorded test outcome, item C=C(C[n+]1ccc(N(C)C)cc1)[C@@H]1CC[C@]2(C(=O)O)CC[C@]3(C)[C@H](CC[C@@H]4[C@@]5(C)CC[C@H](O)C(C)(C)[C@@H]5CC[C@]43C)[C@@H]12.[Br-] inactive

Recorded test outcome, item C=C(C[n+]1ccc(N(C)C)cc1)[C@@H]1CC[C@]2(COC(=O)C[n+]3ccc(N(C)C)cc3)CC[C@]3(C)[C@H](CC[C@@H]4[C@@]5(C)CC[C@H](OC(=O)C[n+]6ccc(N(C)C)cc6)C(C)(C)[C@@H]5CC[C@]43C)[C@@H]12.[Br-].[Br-].[Br-] active

Recorded test outcome, item C=C(C)[C@@H]1CC[C@]2(CO)CC[C@]3(C)[C@H](CC[C@@H]4[C@@]5(C)CC[C@H](OC(=O)C[n+]6ccc(N(C)C)cc6)C(C)(C)[C@@H]5CC[C@]43C)[C@@H]12.[Cl-] active

Recorded test outcome, item C=C(C)[C@@H]1CC[C@]2(COC(=O)C[n+]3ccc(N(C)C)cc3)CC[C@]3(C)[C@H](CC[C@@H]4[C@@]5(C)CC[C@H](OC(=O)C[n+]6ccc(N(C)C)cc6)C(C)(C)[C@@H]5CC[C@]43C)[C@@H]12.[Br-].[Br-] active

---

organism: Rattus norvegicus; assay: Effect on electron transport protein complex 2 in Wistar-Han rat liver mitochondria using succinate as substrate assessed as phosphorylative lag phase at 3 ug/mg relative to control
Task for the reader: assign each of the following compounds its reported Activity.
Numbers only, in %.

Hey, quick one: what's Activity for each of these?
1. C=C(C[n+]1ccc(N(C)C)cc1)[C@@H]1CC[C@]2(COC(=O)C[n+]3ccc(N(C)C)cc3)CC[C@]3(C)[C@H](CC[C@@H]4[C@@]5(C)CC[C@H](OC(=O)C[n+]6ccc(N(C)C)cc6)C(C)(C)[C@@H]5CC[C@]43C)[C@@H]12.[Br-].[Br-].[Br-]
2. C=C(C)[C@@H]1CC[C@]2(COC(=O)C[n+]3ccc(N(C)C)cc3)CC[C@]3(C)[C@H](CC[C@@H]4[C@@]5(C)CC[C@H](O)C(C)(C)[C@@H]5CC[C@]43C)[C@@H]12
3. C=C(C)[C@@H]1CC[C@]2(COC(=O)C[n+]3ccc(N(C)C)cc3)CC[C@]3(C)[C@H](CC[C@@H]4[C@@]5(C)CC[C@H](OC(=O)C[n+]6ccc(N(C)C)cc6)C(C)(C)[C@@H]5CC[C@]43C)[C@@H]12.[Br-].[Br-]
4. C=C(C[n+]1ccc(N(C)C)cc1)[C@@H]1CC[C@]2(C(=O)O)CC[C@]3(C)[C@H](CC[C@@H]4[C@@]5(C)CC[C@H](O)C(C)(C)[C@@H]5CC[C@]43C)[C@@H]12.[Br-]
5. C=C(C)[C@@H]1CC[C@]2(CO)CC[C@]3(C)[C@H](CC[C@@H]4[C@@]5(C)CC[C@H](OC(=O)C[n+]6ccc(N(C)C)cc6)C(C)(C)[C@@H]5CC[C@]43C)[C@@H]12.[Cl-]

36
39
38.3
40.3
38
